Assay: Tmax in rat at 2 mg/kg, po by LC-MS/MS analysis
Format: ADME, organism-based
Conditions: in vivo
experimentalEndpoint: Tmax (h)

{"structure": "Cc1ccc(NC(=O)c2ccnc(C(F)(F)F)c2)cc1-c1ccc2c(c1)OC1(CCOCC1)NC2=O", "observedMeasurement": 4}

###

Experiment: Permeability of compound by PAMPA assay
Format: ADME
Settings: read-out: permeability
experimentalEndpoint: Papp

{"structure": "Cc1ccc(NC(=O)c2ccnc(C(F)(F)F)c2)cc1-c1ccc2c(c1)OC1(CCOCC1)NC2=O", "experimentalEndpoint": "Papp", "observedMeasurement": "< 0.018 ×10⁻⁶ cm/s"}

###

Reported pIC50 values for the following compounds.
Target: Cytochrome P450 3A4 (Homo sapiens, UniProt P08684)
Sequence (P08684 whole entry): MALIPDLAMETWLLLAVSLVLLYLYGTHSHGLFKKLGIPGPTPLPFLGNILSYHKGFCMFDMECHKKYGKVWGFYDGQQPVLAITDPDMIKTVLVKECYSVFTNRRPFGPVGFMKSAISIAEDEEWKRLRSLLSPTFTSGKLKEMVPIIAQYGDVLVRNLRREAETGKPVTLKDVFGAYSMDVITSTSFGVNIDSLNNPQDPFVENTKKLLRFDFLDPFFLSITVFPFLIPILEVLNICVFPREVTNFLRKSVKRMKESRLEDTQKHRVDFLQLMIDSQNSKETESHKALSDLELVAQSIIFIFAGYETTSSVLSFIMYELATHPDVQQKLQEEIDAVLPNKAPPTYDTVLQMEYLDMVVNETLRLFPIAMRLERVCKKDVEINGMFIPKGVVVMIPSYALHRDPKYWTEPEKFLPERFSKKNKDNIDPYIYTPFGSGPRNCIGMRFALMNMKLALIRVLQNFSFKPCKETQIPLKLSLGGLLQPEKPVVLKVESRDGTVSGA
Assay: Inhibition of CYP3A4 in human liver microsomes using midazolam as substrate
Parameters: species or system Microsome
pIC50: −log10 of the molar value.
experimentalEndpoint: pIC50

{"structure": "Cc1ccc(NC(=O)c2ccnc(C(F)(F)F)c2)cc1-c1ccc2c(c1)OC1(CCOCC1)NC2=O", "tgt": "Cytochrome P450 3A4 (Homo sapiens, UniProt P08684)", "observedMeasurement": "< 4.52"}
{"structure": "Cc1ccc(NC(=O)c2ccnc(C(F)(F)F)c2)cc1-c1ccc2c(c1)OC1(CCOCC1)CC2=O", "tgt": "Cytochrome P450 3A4 (Homo sapiens, UniProt P08684)", "observedMeasurement": "< 4.52"}

###

Test: MRT (0 to infinity) in rat at 1 mg/kg, iv by LC-MS/MS analysis
Format: ADME, organism-based
Details: in vivo

{"structure": "Cc1ccc(NC(=O)c2ccnc(C(F)(F)F)c2)cc1-c1ccc2c(c1)OC1(CCOCC1)NC2=O", "MRT inf": "4.35 h"}

###

Test: Oral bioavailability in mouse at 2 mg/kg by LC-MS/MS analysis
Assay type: ADME, organism-based
Details: in vivo

{"structure": "Cc1ccc(NC(=O)c2ccnc(C(F)(F)F)c2)cc1-c1ccc2c(c1)OC1(CCOCC1)NC2=O", "bioavailability, %": 40}

###

Test: Volume of distribution in rat at 1 mg/kg, iv by LC-MS/MS analysis
Format: ADME, organism-based
Conditions: in vivo

{"structure": "Cc1ccc(NC(=O)c2ccnc(C(F)(F)F)c2)cc1-c1ccc2c(c1)OC1(CCOCC1)NC2=O", "Vd / L/kg": 5.59}

###

Experiment: Half life in rat at 2 mg/kg, po by LC-MS/MS analysis
Format: ADME, organism-based
Details: in vivo
experimentalEndpoint: half-life (h)

{"structure": "Cc1ccc(NC(=O)c2ccnc(C(F)(F)F)c2)cc1-c1ccc2c(c1)OC1(CCOCC1)NC2=O", "observedMeasurement": 4.57}

###

Test: Stability of compound in human liver microsomes assessed as half life
Type: ADME, Microsome

{"structure": "Cc1ccc(NC(=O)c2ccnc(C(F)(F)F)c2)cc1-c1ccc2c(c1)OC1(CCOCC1)CC2=O", "half-life": "8.1 min"}
{"structure": "Cc1ccc(NC(=O)c2ccnc(C(F)(F)F)c2)cc1-c1ccc2c(c1)OC1(CCOCC1)NC2=O", "half-life": "29.1 min"}

###

# half-life annotations
Assay: Stability of compound in Dog liver microsomes assessed as half life
Format: ADME, Canis lupus familiaris, Microsome
experimentalEndpoint: half-life (min)

{"structure": "Cc1ccc(NC(=O)c2ccnc(C(F)(F)F)c2)cc1-c1ccc2c(c1)OC1(CCOCC1)NC2=O", "experimentalEndpoint": "half-life", "limitQualifier": ">", "observedMeasurement": 139}
{"structure": "Cc1ccc(NC(=O)c2ccnc(C(F)(F)F)c2)cc1-c1ccc2c(c1)OC1(CCOCC1)CC2=O", "experimentalEndpoint": "half-life", "limitQualifier": "=", "observedMeasurement": 32.4}

// data source = ChEMBL document CHEMBL5143623
